The following molecules have recorded MIC on E. coli (MTCC-443).

Reference set (3 entries):
CC1C(=NOCc2cc(-c3ccc(Cl)cc3)no2)CC(c2ccccc2)OC1c1ccccc1 (stereo not shown) = 12.5 µg/mL
CC1C(=NOCc2cn(-c3ccccc3)nn2)CC(c2ccccc2)OC1c1ccccc1 (stereo not shown) = 25 µg/mL
CCC1C(=NOCc2cn(-c3ccccc3)nn2)CC(c2ccccc2)OC1c1ccccc1 (stereo not shown) = 12.5 µg/mL

Data request, read-out MIC, for CCC1C(=NOCc2cc(-c3ccc(Cl)cc3)no2)CC(c2ccccc2)OC1c1ccccc1 (stereo not shown) 25 µg/mL

###

- Tested on: A. flavus
result type: MIC (µg/mL)
Numbers only, in µg/mL.

Reference set (3 entries):
CC1C(=NOCc2cn(-c3ccccc3)nn2)CC(c2ccccc2)OC1c1ccccc1 (stereo not shown) [Compound 25] = 12.5
CCC1C(=NOCc2cn(-c3ccccc3)nn2)CC(c2ccccc2)OC1c1ccccc1 (stereo not shown) [Compound 26] = 6.3
CC1C(=NOCc2cc(-c3ccc(Cl)cc3)no2)CC(c2ccccc2)OC1c1ccccc1 (stereo not shown) [Compound 31] = 12.5

# ---- query molecule ----
Data request, read-out MIC, for CCC1C(=NOCc2cc(-c3ccc(Cl)cc3)no2)CC(c2ccccc2)OC1c1ccccc1 (stereo not shown) [Compound 32] 6.3
